Listing of entries alongside the reported inhibition at 3 µM.
- TEST_TARGET: androgen receptor (AdEasy+rAR, COS-7 cells) (Rattus norvegicus, UniProt P15207)
- Construct: expressed in transfected cells; host or cells: COS-7 cells transduced with adenovirus AdEasy+rAR
- Sequence (P15207 1-902): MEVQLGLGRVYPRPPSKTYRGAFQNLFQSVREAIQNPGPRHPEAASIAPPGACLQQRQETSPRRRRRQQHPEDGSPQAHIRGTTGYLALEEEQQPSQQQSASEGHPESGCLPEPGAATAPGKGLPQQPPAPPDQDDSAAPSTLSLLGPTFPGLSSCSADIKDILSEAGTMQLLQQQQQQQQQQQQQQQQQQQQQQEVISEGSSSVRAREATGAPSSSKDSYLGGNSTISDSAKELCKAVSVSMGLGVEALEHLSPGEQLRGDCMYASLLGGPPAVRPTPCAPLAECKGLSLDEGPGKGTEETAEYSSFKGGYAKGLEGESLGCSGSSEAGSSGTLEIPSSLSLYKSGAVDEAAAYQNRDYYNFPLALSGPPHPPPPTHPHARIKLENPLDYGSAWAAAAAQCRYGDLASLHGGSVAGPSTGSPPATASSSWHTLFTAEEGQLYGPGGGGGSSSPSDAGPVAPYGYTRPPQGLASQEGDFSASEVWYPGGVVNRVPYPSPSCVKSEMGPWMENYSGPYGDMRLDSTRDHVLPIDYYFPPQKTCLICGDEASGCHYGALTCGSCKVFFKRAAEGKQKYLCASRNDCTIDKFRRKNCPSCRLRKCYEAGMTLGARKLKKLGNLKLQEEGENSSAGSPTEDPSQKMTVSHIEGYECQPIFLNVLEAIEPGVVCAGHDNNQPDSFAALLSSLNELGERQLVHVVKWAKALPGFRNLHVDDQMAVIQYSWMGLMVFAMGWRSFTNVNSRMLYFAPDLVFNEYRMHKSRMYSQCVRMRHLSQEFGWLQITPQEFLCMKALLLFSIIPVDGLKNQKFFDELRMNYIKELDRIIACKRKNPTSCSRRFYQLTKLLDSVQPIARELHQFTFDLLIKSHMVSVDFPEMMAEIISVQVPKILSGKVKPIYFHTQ
- EXPERIMENT_NOTES: COS-7 Whole-Cell Androgen Receptor Binding Assay, Adenovirus Transduction
- CONDITION_PARAMETERS: concentration of 3000 nM
Could you give me the number in %? Just the number is fine.

* CC(O)(CSCC(F)(F)F)c1[nH]c2cc(C(F)(F)F)c([N+](=O)[O-])cc2c1I (stereo not shown) | 71
* CCCSCC(C)(O)c1cc2cc([N+](=O)[O-])c(C(F)(F)F)cc2[nH]1 (stereo not shown) | 60
* CCSCC(C)(O)c1cc2cc([N+](=O)[O-])cc(C(F)(F)F)c2[nH]1 (stereo not shown) | 86
* CCC(O)(CS(=O)(=O)CC(F)(F)F)c1[nH]c2cc(C(F)(F)F)c([N+](=O)[O-])cc2c1Cl (stereo not shown) | 82
* CCSCC(C)(O)c1cc2cc([N+](=O)[O-])c(C(F)(F)F)cc2[nH]1 (single isomer, unassigned) [Compound 149] | 63

query: Field request: inhibition at 3 µM | item: CC(O)(CS(=O)(=O)c1ccc(N)cc1)c1cc2cc(Cl)c(C(F)(F)F)cc2[nH]1 (stereo not shown)
result: 62

query: Recorded inhibition at 3 µM of CC(O)(CSc1ccc([N+](=O)[O-])cc1)c1cc2cc(Cl)c(C(F)(F)F)cc2[nH]1 (stereo not shown) , please.
result: 66

query: Would you mind telling me what inhibition at 3 µM value was observed for CSCC(C)(O)c1cc2cc(C#N)c(C(F)(F)F)cc2[nH]1 (stereo not shown) ?
result: 4.8

query: Which inhibition at 3 µM value is on record for CCSCC(C)(O)c1cc2cc([N+](=O)[O-])c(C(F)(F)F)cc2[nH]1 (racemic) [Compound 142] ?
result: 90

query: What does the data say about its inhibition at 3 µM? Entry: CCC(O)(CSCC(F)(F)F)c1cc2cc(F)c(C(F)(F)F)cc2[nH]1 (stereo not shown)
result: 80

* * *

- TEST_TARGET: androgen receptor (AdEasy+rAR, COS-7 cells) (Rattus norvegicus)
- Construct: expressed in transfected cells; host or cells: COS-7 cells transduced with adenovirus AdEasy+rAR
- EXPERIMENT_NOTES: COS-7 Whole-Cell Androgen Receptor Binding Assay, Adenovirus Transduction
- CONDITION_PARAMETERS: read-out: IC50 (nM), COS Binding
Label Met when IC50 is strictly below 200 nM; at or above that, label Not met.

query: # check: IC50 < 200 nM for CCSCC(C)(O)c1cc2ccc(C(F)(F)F)cc2n1S(C)(=O)=O (centres unmarked)
result: Not met

query: Take the molecule CCS(=O)(=O)CC(C)(O)c1cc2cc([N+](=O)[O-])c(C(F)(F)F)cc2[nH]1 (centres unmarked) [Compound 143] and say whether its IC50 is less than 200 nM.
result: Not met

query: Just wondering, is IC50 of CCC(O)(CSCC(F)(F)F)c1cc2cc([N+](=O)[O-])c(C(F)(F)F)cc2[nH]1 (centres unmarked) below 200 nM?
result: Met

query: State whether 200 nM exceeds IC50 recorded for CN(C)c1ccccc1SCC(C)(O)c1cc2cc(Cl)c(C(F)(F)F)cc2[nH]1 (centres unmarked) .
result: Not met

query: Is IC50 of CC(O)(CSCC(F)(F)F)c1cc2cc(Cl)c(C(F)(F)F)cc2[nH]1 (centres unmarked) strictly below 200 nM?
result: Not met

query: Hello, I'm reviewing records and need to know if IC50 of CSCC(C)(O)c1cc2cc([N+](=O)[O-])c(C(F)(F)F)cc2[nH]1 (single isomer, unassigned) [Compound 145] is below 200 nM. Could you check?
result: Met

query: Hello, is IC50 of the following molecule strictly smaller than 200 nM? CC(O)(CSc1ccccc1N)c1cc2cc(Cl)c(C(F)(F)F)cc2[nH]1 (centres unmarked)
result: Not met

query: Is IC50 strictly under 200 nM for the entry CCSCC(C)(O)c1cc2cc([N+](=O)[O-])cc(C(F)(F)F)c2[nH]1 (centres unmarked) ?
result: Met

query: is_below(IC50, 200 nM) for CCC(O)(CSCC(F)(F)F)c1cc2cc(Cl)c(C(F)(F)F)cc2[nH]1 (centres unmarked) ?
result: Met

query: Determine whether this molecule shows IC50 lower than 200 nM (ties excluded): CCS(=O)(=O)CC(C)(O)c1cc2cc([N+](=O)[O-])c(C(F)(F)F)cc2[nH]1 (centres unmarked) [Compound 175]
result: Not met

query: Here's an entry: CCSCC(C)(O)c1cc2cc([N+](=O)[O-])c(C(F)(F)F)cc2[nH]1 (racemic) . Is its IC50 below 200 nM?
result: Not met

query: Please determine if CCC(O)(CSCC(F)(F)F)c1cc2cc(F)c(C(F)(F)F)cc2[nH]1 (centres unmarked) is below 200 nM in terms of IC50.
result: Not met

query: Say whether its IC50 is strictly beneath 200 nM. Entry: CCSCC(C)(O)c1cc2cc(C#N)c(C(F)(F)F)cc2[nH]1 (centres unmarked)
result: Not met

query: Given CCCS(=O)(=O)CC(C)(O)c1cc2cc([N+](=O)[O-])c(C(F)(F)F)cc2[nH]1 (centres unmarked) , is recorded IC50 strictly lower than 200 nM?
result: Met

query: # TODO verify IC50 < 200 nM strictly for this molecule: CC(O)(CSCc1ccccc1)c1cc2cc([N+](=O)[O-])c(C(F)(F)F)cc2[nH]1 (centres unmarked)
result: Not met

query: Does CC(O)(CCS(C)(=O)=O)c1cc2cc([N+](=O)[O-])c(C(F)(F)F)cc2[nH]1 (centres unmarked) have IC50 strictly under 200 nM?
result: Not met

* * *

- TEST_TARGET: androgen receptor (AdEasy+rAR, L929 cells) (Rattus norvegicus, UniProt P15207)
- Construct: expressed in transfected cells; host or cells: L929 cells transduced with adenovirus AdEasy+rAR
- EXPERIMENT_NOTES: L929 Androgen Receptor Functional Assay, Adenovirus Transduction
- Assay type: cell-based
- CONDITION_PARAMETERS: antagonist testing with R1881, 3000 nM; 3 µM
- Protocol: L929 cells were plated in 96-well plates at 20,000 cells per well, in DMEM/F12 (GIBCO) containing 10% (v/v) charcoal-treated fetal bovine serum (Hyclone) and lacking phenol red. […] To each well was added 100 μL of Steady-Glo luciferase assay substrate (Promega) and the plates were placed on a rotary shaker for 1 min. […] The contents of each well were then transferred to a white microtiter plate (Packard) and read on a Luminoskan Ascent (Thermo Lab Systems). […]
RESULT_TYPE: % Inhibition, L929 androgen receptor functional assay (%)
Quick reminder: number only, in %, skip the unit.

query: Which % Inhibition, L929 androgen receptor functional assay reading was recorded for the molecule CC(O)(CSCC(F)(F)F)c1cc2cc([N+](=O)[O-])c(C(F)(F)F)cc2[nH]1 (stereo not drawn) [Compound 201] ?
result: 83

query: If you can, please state the reported % Inhibition, L929 androgen receptor functional assay value of CCSCC(C)(O)c1cc2cc(C#N)c(C(F)(F)F)cc2[nH]1 (single isomer, unassigned) [Compound 217] .
result: 80

query: # lookup: % Inhibition, L929 androgen receptor functional assay of CSCC(C)(O)c1cc2cc([N+](=O)[O-])c(C(F)(F)F)cc2[nH]1 (single isomer, unassigned) [Compound 145]
result: 94

These measurements were taken from patent US7282507B2.
